Origin of the recorded values: patent US20250027068

# Assay system: pooled human IgG
Property: Enzyme Activity Endpoint Assay (purified): Fab′2 (ng/µL)
The reply should be a number in ng/µL, with the unit left off.

Lookup result for PRT-71 (protein) MANQEIRYSEVTPYHVTSVWTKGVTPPANFTQGEDVFHAPYVANQGWYDITKTFNGKDDLLCGAATAGNMLHWWFDQNKEEIEAYLKKHPEKQKIMFGDQELLDVRKVINTKGSQTNSELFNYFRDKAFPGLSARRLGVMPDLVLDMFINGYYLNVYKTQTTDVNRTYQEKDKRGGIFDAVFTRGDQSKLLTSRHDFKEKNLKEISDLIKKELTEGKALGLSHTYANVRINHVINLWGADFDSNGNLKAIYVTDSDSNASIGMKKYFVGVNSAGKVAISAKEIKEDNIGAQVLGLFTLSTGQDIWNQTN ; measured Enzyme Activity Endpoint Assay (purified): Fab′2: 53
